Target: HNF4alpha2 (COS-7 nuclear extract) (Homo sapiens, UniProt P41235 1-474)
Sequence: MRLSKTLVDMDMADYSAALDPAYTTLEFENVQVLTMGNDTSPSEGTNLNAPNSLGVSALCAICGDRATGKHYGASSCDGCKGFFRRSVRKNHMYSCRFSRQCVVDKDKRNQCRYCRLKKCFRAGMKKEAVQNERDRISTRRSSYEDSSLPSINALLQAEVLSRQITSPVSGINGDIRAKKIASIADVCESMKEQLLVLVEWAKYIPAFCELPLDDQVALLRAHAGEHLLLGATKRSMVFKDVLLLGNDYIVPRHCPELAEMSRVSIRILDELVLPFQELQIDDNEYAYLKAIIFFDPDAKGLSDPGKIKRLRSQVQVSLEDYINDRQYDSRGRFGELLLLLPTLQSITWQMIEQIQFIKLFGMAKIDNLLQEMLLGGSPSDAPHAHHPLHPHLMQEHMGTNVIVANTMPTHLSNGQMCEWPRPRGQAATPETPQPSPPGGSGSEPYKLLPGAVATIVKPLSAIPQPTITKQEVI
Experiment: protein-binding microarray; COS-7 nuclear extract on double-stranded Agilent 4x180k PBM; binding buffer, salt, pH and temperature not given in the material; high values mean tight binding
Details: chain copies: 2; label: 3' end of strand 1 on the slide; dsDNA, one strand shown
In all, about 18,000 sequences were measured (“log2 normalized intensity”: median about 0.39, highest 2% from about 6.6 on). This excerpt belongs to a sample that is enriched for the highest values.
Kindly supply the reported binding signal values for the records listed here.

Record for "TCAGTCTGGTTGAGGCAAGCAAAAGCCAAGGCCTAGGGAGATTAGAGTATCGGTCGA" under target or system HNF4alpha2 (COS-7 nuclear extract) (Homo sapiens, UniProt P41235 1-474): binding signal reported as -0.985 log2 normalized intensity

Entry "CTTTGGCCAAGGGCAGTGTTTGCCCAGCTTGCCTAGGGAGATTAGAGTATCGGTCGA" , HNF4alpha2 (COS-7 nuclear extract) (Homo sapiens, UniProt P41235 1-474) data, binding signal value: 0.106 log2 normalized intensity

Item "GTCTGTTGACCTTTGGCCAAGGGCAGTGTTGCCTAGGGAGATTAGAGTATCGGTCGA" was tested on HNF4alpha2 (COS-7 nuclear extract) (Homo sapiens, UniProt P41235 1-474); the reported binding signal is 6.71 log2 normalized intensity
